System: mitochondrial membrane potential
Type: cell-based, mouse
Details: normalized composite Z-score vs mock-treated (DMSO) wells; Conc 20 μM
Output T for records whose ΔΨm is lower than -0.6, F for records at or above -0.6.

COMPOUND	TARGET OF ASSAY	CLASS NAME
CC1(C)C2CC(=O)[C@]3(C)C(CC[C@@]4(C)[C@H](c5ccoc5)OC(=O)C5OC543)[C@@]2(C)[C@@H](O)C[C@H]1O (stereo partly shown) [1,3-dideacetyl-7-deacetoxy-7-oxokhivorin]	mitochondrial membrane potential	F
OC[C@H]1O[C@@H](O[C@H]2[C@H](O)[C@@H](O)[C@H](O)O[C@@H]2CO)[C@H](O)[C@@H](O)[C@@H]1O [cellobiose (D[+])]	mitochondrial membrane potential	F
CC(=O)O[C@@H]1CC2C(C)(C)C(=O)[C@@H]3O[C@@H]3[C@]2(C)C2CC[C@]3(C)C(=CC(=O)O[C@H]3c3ccoc3)[C@@]21C (stereo partly drawn) [1 (2)alpha-epoxydeoxydihydrogedunin]	mitochondrial membrane potential	F
C=C1C(N)CC2CC1C2(C)C (stereo not drawn) [3-amino-beta-pinene]	mitochondrial membrane potential	F

Is -0.6 strictly greater than the compound's reported ΔΨm? compound: CC(C)(O)[C@H]1CC[C@]2(C)[C@H]3CC[C@@H]4[C@@]5(C)CCCC(C)(C)[C@@H]5[C@@H](O)C[C@@]4(C)[C@]3(C)CC[C@@H]12 [zeorin]
T

Is -0.6 strictly greater than the compound's reported ΔΨm? compound: C[C@H](CCC(=O)O)[C@H]1CC[C@H]2[C@@H]3CCC4CCCC[C@]4(C)[C@H]3C=C[C@]12C (stereo partly shown) [chol-11-enic acid]
T

Is -0.6 strictly greater than the compound's reported ΔΨm? compound: CC(=O)Oc1ccc(/C=C/c2cc(OC(C)=O)cc(OC(C)=O)c2)cc1 [triacetylresveratrol]
T

Is -0.6 strictly greater than the compound's reported ΔΨm? compound: CC(=O)Oc1cc(OC(C)=O)c2c(c1)O[C@H](c1ccc(OC(C)=O)c(OC(C)=O)c1)[C@@H](OC(C)=O)C2 [catechin pentaacetate]
T

Is -0.6 strictly greater than the compound's reported ΔΨm? compound: CC1=C2C(O)C(=O)OC3CC4C(C)(C)C(=O)C=C[C@]4(C)C(CC1)[C@]23C (stereo partly shown) [merogedunin]
F

Is -0.6 strictly greater than the compound's reported ΔΨm? compound: O=C(O[C@@H]1Cc2c(O)cc(O)cc2O[C@@H]1c1cc(O)c(O)c(O)c1-c1c([C@H]2Oc3cc(O)cc(O)c3C[C@H]2OC(=O)c2cc(O)c(O)c(O)c2)cc(O)c(O)c1O)c1cc(O)c(O)c(O)c1 [2′,2′-bisepigallocatechin digallate]
T

Is -0.6 strictly greater than the compound's reported ΔΨm? compound: COc1ccc(-c2cc(=O)c3c(O)cc(O)c(-c4cc(-c5cc(=O)c6c(O)cc(O)cc6o5)ccc4OC)c3o2)cc1 [isoginkgetin]
T

Is -0.6 strictly greater than the compound's reported ΔΨm? compound: CCCCCC1C(=O)CCC1CC(=O)O (stereo not shown) [dihydrojasmonic acid]
F

* * *

Tested on: OXPHOS gene expression
Type: cell-based, mouse
Details: composite Z-score vs DMSO; Conc 20 μM
# GE-HTS per entry
Reply with just the number.

# example entries with known answers
MOLECULE	GE-HTS
CCCCCC(=O)Cc1cc(O)cc(O)c1C(=O)Oc1cc(CC(=O)CCCCC)c(C(=O)O)c(OC)c1 [arthonioic acid]	−0.668
C[C@@H]1CC[C@@]2(OC1)O[C@H]1C[C@H]3[C@@H]4CC=C5C[C@@H](O)CC[C@]5(C)[C@H]4CC[C@]3(C)[C@H]1[C@@H]2C [diosgenin]	−0.245
NC[C@@H]1O[C@H](O[C@H]2[C@@H](O)[C@H](O[C@@H]3[C@@H](O)[C@H](N)C[C@H](N)[C@H]3O[C@H]3O[C@H](CN)[C@@H](O)[C@H](O)[C@H]3N)O[C@@H]2CO)[C@H](N)[C@@H](O)[C@@H]1O [neomycin]	0.817
COc1cc2c3cc1Oc1c(OC)c(OC)cc4c1[C@@H](Cc1ccc(O)c(c1)Oc1ccc(cc1)C[C@@H]3N(C)CC2)N(C)CC4 [berbamine]	−0.345
CC(=O)C1=C(O)[C@@H]2[C@H]3c4c[nH]c5cccc(c45)C[C@H]3C(C)(C)N2C1=O [cyclopiazonic acid]	0.186

Now look at this one.
Given the molecule O=c1[nH]c2ccccc2n1C1CCN(CCCC(c2ccc(F)cc2)c2ccc(F)cc2)CC1 [pimozide] , write its reported GE-HTS.
0.722

Data origin: patent US20090143279A1
